system: BT474; test: Cytotoxicity assay (SRB), BT474; format: cell-based; settings: Homo sapiens, BT-474, 144 h, BT474 cells, SRB, 6 days; read-out: In Vitro Cellular Activity IC50 BT474
Reported IC50 values follow for various compounds
Respond with the bare value in µM.

[[record]]
compound = "O=C1NC(=O)c2ccc(Br)cc2/C1=C/NCc1ccc2c(c1)OCO2 [Example 109]"
study_target = "BT474"
endpoint_value = 34.8

[[record]]
compound = "O=C1NC(=O)c2ccc(Br)cc2/C1=C/Nc1ccc(CCN2CCCC2)cc1 [Example 176]"
study_target = "BT474"
endpoint_value = 7.2

[[record]]
compound = "CC1(C)Oc2cc(CN/C=C3\\C(=O)NC(=O)c4ccc(Br)cc43)cc(O)c2O1 [Example 224]"
study_target = "BT474"
endpoint_value = 9.6


Now turn to the next compound.
Specify IC50 for CN1CCN(c2ccc(N/C=C3\C(=O)NC(=O)c4ccc(-c5ccsc5)cc43)cc2)CC1 [Example 107] , system BT474.
2.5

----------
Reported log10 IC50 values follow for various compounds
target: cyclin D1/cdk 4 enzyme (Homo sapiens); construct: made in house; host or cells: Sf9 insect cells, recombinant baculovirus; assay: CDK4 ELISA kinase assay (phospho-Rb ser 795 detection); assay type: biochemical; settings: In Vitro Enzyme Assays, 200 μM ATP, read-out: CDK4 IC50
Sequence (P11802 whole entry, species assumed): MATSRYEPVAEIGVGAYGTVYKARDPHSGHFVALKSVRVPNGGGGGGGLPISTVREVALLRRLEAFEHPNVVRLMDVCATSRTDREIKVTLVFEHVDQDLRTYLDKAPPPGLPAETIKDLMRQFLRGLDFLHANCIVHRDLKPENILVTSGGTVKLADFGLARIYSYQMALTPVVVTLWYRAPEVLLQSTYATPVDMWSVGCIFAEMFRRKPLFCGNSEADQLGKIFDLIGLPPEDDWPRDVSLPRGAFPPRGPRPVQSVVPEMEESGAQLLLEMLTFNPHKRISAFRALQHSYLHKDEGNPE
Sequence (P24385 whole entry partner, species assumed): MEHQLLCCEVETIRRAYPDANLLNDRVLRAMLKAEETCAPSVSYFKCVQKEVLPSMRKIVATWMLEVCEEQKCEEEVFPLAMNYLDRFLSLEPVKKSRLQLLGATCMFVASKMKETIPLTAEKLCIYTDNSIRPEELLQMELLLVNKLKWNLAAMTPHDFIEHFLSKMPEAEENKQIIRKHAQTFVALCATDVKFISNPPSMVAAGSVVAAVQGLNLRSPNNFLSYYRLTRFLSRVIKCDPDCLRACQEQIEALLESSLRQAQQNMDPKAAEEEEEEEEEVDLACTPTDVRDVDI
Friendly reminder: values = log10 of IC50, unit nM.

Completed entries (count: 6):
[[record]]
compound = "CCN1CCN(c2ccc(N/C=C3\\C(=O)NC(=O)c4ccc(-c5ccoc5)cc43)cn2)CC1 [Example 416]"
endpoint_value = 2.11

[[record]]
compound = "O=C1NC(=O)c2ccc(Br)cc2C1=CNc1ccc(-c2cccnc2)cc1 [Example 349]"
endpoint_value = 4.57

[[record]]
compound = "CN(C)CCCCCN/C=C1\\C(=O)NC(=O)c2ccc(Br)cc21 [Example 304]"
endpoint_value = 3.18

[[record]]
compound = "O=C1NC(=O)c2ccc(Br)cc2/C1=C/NCc1ccc(OC(F)F)c(O)c1 [Example 180]"
endpoint_value = 1.85

[[record]]
compound = "CCOc1ccc(CN/C=C2\\C(=O)NC(=O)c3ccc(Br)cc32)cc1O [Example 166]"
endpoint_value = 1.48

[[record]]
compound = "CC1CCCN1Cc1ccc(N/C=C2\\C(=O)NC(=O)c3ccc(Br)cc32)cc1 (centres unmarked) [Example 287]"
endpoint_value = 3.20


Give recorded log10 IC50. CN1CC2CC1CN2c1ccc(NC=C2C(=O)NC(=O)c3ccc(I)cc32)cc1 (centres unmarked) [Example 221]
2.51

----------
molecular target: cyclin B/CDK1 enzyme (Homo sapiens, UniProt P06493); construct: purchased New England BioLabs; host or cells: Sf9 insect cells, recombinant baculovirus; assay: CDK1 ELISA kinase assay (phospho-Rb ser 795 detection); assay type: biochemical; conditions: In Vitro Enzyme Assay, cyclin B/CDK1, read-out: CDK1 IC50
Sequence (P06493 whole entry): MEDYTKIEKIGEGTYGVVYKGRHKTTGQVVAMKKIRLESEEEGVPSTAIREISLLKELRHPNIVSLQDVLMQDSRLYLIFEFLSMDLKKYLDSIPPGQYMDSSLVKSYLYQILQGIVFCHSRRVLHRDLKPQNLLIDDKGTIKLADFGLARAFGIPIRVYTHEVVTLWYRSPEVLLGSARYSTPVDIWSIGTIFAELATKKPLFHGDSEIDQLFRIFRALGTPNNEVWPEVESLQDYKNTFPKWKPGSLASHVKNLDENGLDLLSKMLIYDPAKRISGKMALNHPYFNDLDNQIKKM
Sequence (P14635 whole entry partner): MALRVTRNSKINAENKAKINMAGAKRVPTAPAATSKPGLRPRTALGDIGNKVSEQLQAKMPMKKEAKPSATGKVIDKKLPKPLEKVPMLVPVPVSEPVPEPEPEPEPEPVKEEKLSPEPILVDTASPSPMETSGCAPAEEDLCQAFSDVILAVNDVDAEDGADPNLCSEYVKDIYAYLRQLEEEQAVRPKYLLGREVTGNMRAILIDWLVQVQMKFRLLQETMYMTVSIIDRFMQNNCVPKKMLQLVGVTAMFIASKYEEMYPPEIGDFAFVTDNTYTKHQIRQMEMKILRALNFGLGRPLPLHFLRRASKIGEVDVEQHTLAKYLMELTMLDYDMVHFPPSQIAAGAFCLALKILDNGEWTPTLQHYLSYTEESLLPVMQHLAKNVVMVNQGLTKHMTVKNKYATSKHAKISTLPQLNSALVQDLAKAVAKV
property-measured: IC50 (µM)
Respond with the bare value in µM.

[[record]]
smiles_code = "COc1cccc(-c2ccc3c(c2)C(=CNCc2ccc(O)c(O)c2)C(=O)NC3=O)c1"
endpoint_value = 21.1

[[record]]
smiles_code = "CCN(CC)c1ccc2c(c1)C(=CNCc1ccc(O)c(O)c1)C(=O)NC2=O"
endpoint_value = 18.9

[[record]]
smiles_code = "O=C1NC(=O)c2ccc(-c3ccccc3)cc2C1=CNCc1ccc(O)c(O)c1"
endpoint_value = 32.5

[[record]]
smiles_code = "O=C1NC(=O)c2ccc(-c3ccc(C(F)(F)F)cc3)cc2C1=CNCc1ccc(O)c(O)c1"
endpoint_value = 40.6

[[record]]
smiles_code = "O=C1NC(=O)c2ccc(-c3ccc(Cl)cc3Cl)cc2C1=CNCc1ccc(O)c(O)c1"
endpoint_value = 9.4


Give recorded IC50. N#CCc1ccc(NC=C2C(=O)NC(=O)c3ccccc32)cc1
45

Give recorded IC50. CN1CCN(c2ccc(NC=C3C(=O)NC(=O)c4ccc(C=Cc5ccncc5)cc43)cc2)CC1
15.1

Give recorded IC50. COc1ccc(-c2ccc3c(c2)C(=CNCc2ccc(O)c(O)c2)C(=O)NC3=O)cc1
16.5

Give recorded IC50. COc1ccccc1-c1ccc2c(c1)C(=CNCc1ccc(O)c(O)c1)C(=O)NC2=O
43.4
